Test system: CEM cells HIV-1 protection, formazan growth assay
protocolNotes: NCI AIDS Antiviral Assay;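 active means compounds giving half or more protection of infected cells from virus-caused growth loss, again on retest; inactive means the rest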
Protocol: The ability of compounds to protect human CEM cells from HIV-1 infection is measured as a screen for new compounds capable of inhibiting the HIV virus. Five concentrations of drug were tested on uninfected and infected cells and cell growth was measured using a soluble formazan assay. […] Compounds that provided at least 50% protection were retested. Compounds that provided at least 50% protection on retest were listed as moderately active. […]
Where a SMILES comes first, the peptide text is derived from it. [ ]: non-standard residue; d: D form. The star is where a group is joined. ξ: configuration not given here. X13 = COc1ccc(C(N*)c2ccc(OC)cc2)cc1; NMeF = CN[C@@H](Cc1ccccc1)C(=O)O; NMeD = CN[C@@H](CC(=O)O)C(=O)O; NMeV = CN[C@H](C(=O)O)C(C)C; ξNMeV = CNC(C(=O)O)C(C)C; Boc = CC(C)(C)OC(=O)*; ξNMeA = CNC(C)C(=O)O; ξV = CC(C)C(N)C(=O)O
Entry note: the call must match one of 1.0 = active, 0.0 = inactive

Fill in: this test's call for Cc1[nH]n(C2=NCCN2)c(=O)c1Cc1ccccc1 is ___
0.0

# fetch the recorded call for O=C(c1ccccc1)n1c2ccc(Br)cc2c2nc3ccccc3nc21 here
0.0

Record lookup: outcome of this test for O=C1C=CC(=O)C2C3c4ccccc4C(c4ccccc43)C12 (stereo not given) ?
0.0

Assay outcome for CCOC(=O)CC(C)CCO (stereo not given) : what was it?
0.0

Given Cn1cc(NC(=O)c2nc(NC(=O)c3nc(NC(=O)c4ccc(C(=O)Nc5cn(C)c(C(=O)Nc6cn(C)c(C(=O)Nc7cn(C)c(C(=O)NCCC(=N)N)n7)n6)n5)cc4)cn3C)cn2C)nc1C(=O)NCCC(=N)N , state the outcome it received in this test.
0.0

Entry CCc1cc(=O)oc2c3c(cc(OC(C)C)c12)O[C@H](C)[C@@H](C)C3=O : call = ?
0.0

State the result this test recorded for COc1ccc(CCC2(C(OC)OC)NC(=O)NC2=O)cc1 (stereo not given) .
0.0

Recorded test call requested for CCN(CC)CCN(CC)C(=O)COc1cc2c(O)c3c(O)c(C)c4c(c13)C(=O)C(C)(O/C=C/C(OC)C(C)C(OC(C)=O)C(C)C(O)C(C)C(O)C(C)/C=C/C=C(\C)C(=O)N2)O4 (stereo not given)
0.0

For C(=C1\CCC/C(=C/c2ccccc2)C1=NNc1ccccc1)/c1ccccc1 , what call appears in the results of this test?
0.0

Recorded test call requested for COC(=O)c1cc2ccc(O)c(O)c2cn1
0.0

// outcome(item) with item = C#CCn1c(I)cc2c(c1=O)COC(=O)[C@]2(O)CC
0.0

Could you check what this test reported for NC(N)=N/N=C\CC(O)CO (stereo not given) ?
0.0

Tell me the assay call for C#CCN(C(=O)C(F)(F)F)C(/C=C\C(=O)OC)(C(=O)OCC)C(=O)OCC please.
0.0

Each compound tested received a call. Report the one for Cc1ccc(SC23C=CC(CC24CCOC4=O)OC3=O)cc1 (stereo not given) .
0.0

Hi, sorry to bother you, what did the test record for CCOC(=O)Cc1nc(Nc2ccc(F)c(Cl)c2)c2c3c(sc2n1)CCCC3 ?
0.0

Can you look up the reported call for Cc1n[nH]c(=O)n1/N=C\c1ccccc1 for me?
0.0

What classification did O=c1oc2ccccc2c(O)c1C(c1cc(OCc2ccccc2)cc(OCc2ccccc2)c1)c1c(O)c2ccccc2oc1=O end up with in this test?
0.0

State the result this test recorded for N#CSC1CCCCCCC1SC#N (stereo not given) .
0.0

Check the results log: what was the call for CCOC(=O)Cc1nc2ccc3c(c2[nH]c1=O)C(=O)c1ccccc1C3=O ?
0.0

Test call, this compound: COc1cc2c(cc1OC)C1CNC(C2)c2cc(OC)c(OC)cc21 (stereo not given)
0.0

Please share the test call associated with CN1CCN(c2c(C(=O)Nc3ccc([N+](=O)[O-])cc3)cc([N+](=O)[O-])cc2[N+](=O)[O-])CC1 .
0.0

What did the test return for Cc1ccc(S(=O)(=O)c2scc(-c3ccccc3)c2C)cc1 ?
0.0

Give the logged outcome of this assay for the following compound: Cc1ccc2[nH]c3[nH]c(=S)[nH]c(=O)c3c2c1
1.0

Hey, what did the test say about O=P1(Oc2ccc(Cl)cc2)OCCS1 (stereo not given) ?
0.0

Test call, this compound: COc1cc(N2C(=O)C(=O)C3(CCCCC3)C2=O)cc(OC)c1OC
0.0

# outcome recorded in this test, key = ClC(Cl)=CC(Cl)(Cl)C(Cl)(Cl)C(Cl)(Cl)Cl
0.0

I would be grateful if you could indicate the recorded call for Cc1ccn2c(N=O)c(-c3ccccc3)nc2c1 .
1.0

Record request — test call for Clc1ccc(CN2COc3c(cc(Cl)c4cccnc34)C2)c(Cl)c1
0.0

Write down the call the test reported for this compound. Item: Clc1ccccc1C[P+](c1ccccc1)(c1ccccc1)c1ccccc1
0.0

Name the outcome recorded for CCCCCC1=C(c2ccc(OC)c(S(=O)(=O)N(C)C)c2)c2cc(S(=O)(=O)N(C)C)c(OC)cc2S1(=O)=O in the assay.
0.0

Entry O=S1c2ccccc2Sc2ccccc21 : call = ?
1.0

Given CN1C2C=CC1c1c(C3=NC(C)(C)CO3)cccc12 (stereo not given) , state the outcome it received in this test.
0.0

Status in this test for O=C(Nc1cc2c(cc1OCc1ccccc1)N(S(=O)(=O)c1ccccc1)[C@@H]1c3ccccc3OC[C@H]21)c1ccccc1 ?
0.0

For this compound, state the assay outcome: Cc1ccc(/C=C2\CCS(=O)(=O)c3ccccc3C2=O)cc1
0.0

Per the records of this test, what outcome belongs to CC(C)C1=Cc2ccc3c(c2C(=O)C1=O)CCCC3(C)C ?
0.0

Outcome? COc1ccc(C(NC(=O)C[C@@H](C(=O)N(C)C(C)C(=O)O)N(C)C(=O)[C@@H]2CCCN2C(=O)[C@H](C(C)C)N(C)C(=O)C(C(C)C)N(C)C(=O)[C@H](Cc2ccccc2)N(C)C(=O)C(NC(=O)OC(C)(C)C)C(C)C)c2ccc(OC)cc2)cc1 (stereo not given in full) (Boc-[ξV][NMeF][ξNMeV][NMeV]P[NMeD](X13)[ξNMeA]-OH)
0.0

Any idea what this test logged for Cc1cc(=O)[nH]c(NN2C(Cl)C(=O)C2c2cccc(Cl)c2)n1 (stereo not given) ?
0.0

# lookup: test call for Nc1nc(=S)[nH]c2n[nH]nc12
0.0

# outcome recorded in this test, key = CC(=O)OC1CCC2(C)C(CCC3C2CCC2(C)C3CCC2C(C)(C)O)C1 (stereo not given)
0.0

What call does the record list for Cc1ccc(S(=O)(=O)n2oc(=O)c(-c3ccccc3)c2N)cc1 ?
0.0
